# conditionLabel: in n-hexane, 310.15 K
Please respond with reported solubility (mole fraction) for every item in the list.
Give a plain numeric answer without units written out.

Endpoint output: solubility (mole fraction) of `Brc1ccc(NC2=NCCC3(CCCCC3)S2)cc1` . Value? 6.54e-05

Endpoint output: solubility (mole fraction) of `c1ccc(NC2=NCCC3(CCCCC3)S2)cc1` . Value? 0.0019

Endpoint output: solubility (mole fraction) of `CC(C)c1ccc(NC2=NCCC3(CCCCC3)S2)cc1` . Value? 0.000919

Endpoint output: solubility (mole fraction) of `Cc1ccc(NC2=NCCC3(CCCCC3)S2)cc1Cl` . Value? 2.15e-05

Endpoint output: solubility (mole fraction) of `CC(=O)c1ccc(NC2=NCCC3(CCCCC3)S2)cc1` . Value? 3.23e-05

Endpoint output: solubility (mole fraction) of `Clc1ccc(NC2=NCCC3(CCCCC3)S2)cc1` . Value? 0.000136

Endpoint output: solubility (mole fraction) of `CCc1ccc(NC2=NCCC3(CCCCC3)S2)cc1` . Value? 0.000617

Endpoint output: solubility (mole fraction) of `Cc1ccc(NC2=NCCC3(CCCCC3)S2)cc1` . Value? 0.000445

Endpoint output: solubility (mole fraction) of `FC(F)(F)c1ccc(NC2=NCCC3(CCCCC3)S2)cc1` . Value? 0.000424

Endpoint output: solubility (mole fraction) of `O=C(NC1=NCCC2(CCCCC2)S1)c1ccccc1` . Value? 0.00025

Endpoint output: solubility (mole fraction) of `COc1ccc(NC2=NCCC3(CCCCC3)S2)cc1` . Value? 0.000295
